Field: thermal shift delta Tm. Provide a value for each of the compounds that follow.
system: LOC_OS05G30820-cb001; assay: thermal shift delta Tm vs DMSO control; higher = stronger stabilization (binding); details: 12.5 µM; protein concentration 2 µM;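 also: purified Escherichia coli-expressed rice kinase domain construct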
Where a name gives a salt, the structure may show the parent alone.

Incoming: Consider the compound `Cc1nc2ccc(-n3ncc(C(=O)c4cc5ccccc5[nH]4)c3N)cc2[nH]1` . State its measured thermal shift delta Tm.
Outgoing: 0.59 °C

Incoming: Consider the compound `NC(=O)Nc1cc(-c2cccc(F)c2)sc1C(=O)N[C@H]1CCCNC1` . State its measured thermal shift delta Tm.
Outgoing: 1.33 °C

Incoming: Consider the compound `O=C1NC(=O)/C(=C/c2ccc3c(c2)OC(F)(F)O3)S1` . State its measured thermal shift delta Tm.
Outgoing: 0.8 °C

Incoming: Consider the compound `Nc1cc(C(F)(F)F)c(-c2cc(N3CCOCC3)nc(N3CCOCC3)n2)cn1` . State its measured thermal shift delta Tm.
Outgoing: 0.66 °C

Incoming: Consider the compound `N#CC1(c2ccc(NC(=O)c3cccnc3NCc3ccncc3)cc2)CCCC1` . State its measured thermal shift delta Tm.
Outgoing: 0.66 °C

Incoming: Consider the compound `Cc1ccc(C(=O)Nc2cccc(C(F)(F)F)c2)cc1Nc1nc(-c2cccnc2)nc2c1cnn2C` . State its measured thermal shift delta Tm.
Outgoing: 0.9 °C

Incoming: Consider the compound `CC[C@@H]1C(=O)N(C)c2cnc(Nc3ccc(C(=O)NC4CCN(C)CC4)cc3OC)nc2N1C1CCCC1` . State its measured thermal shift delta Tm.
Outgoing: 0.28 °C

Incoming: Consider the compound `Nc1nc(Nc2ccc(S(N)(=O)=O)cc2)nn1C(=O)c1c(F)cccc1F` . State its measured thermal shift delta Tm.
Outgoing: 1.95 °C

Incoming: Consider the compound `Cc1c[nH]c(/C=C2\C(=O)Nc3ccccc32)c1CCC(=O)O` . State its measured thermal shift delta Tm.
Outgoing: 2.14 °C

Incoming: Consider the compound `CN1CCN(Cc2ccc(NC(=O)Nc3ccc(Oc4ccnc(N)n4)cc3)cc2C(F)(F)F)CC1` . State its measured thermal shift delta Tm.
Outgoing: 0.74 °C

Incoming: Consider the compound COc1nccnc1NS(=O)(=O)c1ccc(NC(=O)/C=C/c2ccc([N+](=O)[O-])s2)cc1 [Necrosulfonamide] . State its measured thermal shift delta Tm.
Outgoing: 0.41 °C

Incoming: Consider the compound `CCS(=O)(=O)N1CC(CC#N)(n2cc(-c3ncnc4[nH]ccc34)cn2)C1` . State its measured thermal shift delta Tm.
Outgoing: 0.72 °C

Incoming: Consider the compound `COc1ccc(Oc2cc(NCCC(F)(F)F)c3ncc(-c4ccc(C(=O)NC5CC5)c(C)c4)n3n2)c(F)c1F` . State its measured thermal shift delta Tm.
Outgoing: 0.67 °C

Incoming: Consider the compound `C[C@H](Nc1ncnc2nc[nH]c12)c1cc2cccc(Cl)c2c(=O)n1-c1ccccc1` . State its measured thermal shift delta Tm.
Outgoing: 0.45 °C

Incoming: Consider the compound `O=C(O)c1ccc(-c2c[nH]c3ncc(-c4ccccc4)cc23)cc1C1CCCC1` . State its measured thermal shift delta Tm.
Outgoing: 0.74 °C

Incoming: Consider the compound Nc1ncccc1-c1nc2ccc(-c3ccccc3)nc2n1-c1ccc(C2(N)CCC2)cc1 [Miransertib (ARQ 092) HCl] . State its measured thermal shift delta Tm.
Outgoing: 0.04 °C

Incoming: Consider the compound `O=c1[nH]nc(Sc2ncc([N+](=O)[O-])s2)n1-c1ccc2c(c1)OCCO2` . State its measured thermal shift delta Tm.
Outgoing: 0.64 °C

Incoming: Consider the compound `CNS(=O)(=O)C[C@H]1CC[C@H](N(C)c2[nH]cnc3nccc2-3)CC1` . State its measured thermal shift delta Tm.
Outgoing: 0.53 °C
